# Cmax listing for each entry below
test: Cmax in dog at 5 mg/kg, po; assay type: ADME, organism-based, Canis lupus familiaris; parameters: dose 5 mg/kg, route oral; conditions: in vivo
I only need the number, in ng/mL, no unit after it.

COC(=O)N[C@H](C(=O)N[C@@H](Cc1ccc(-c2ccccn2)cc1)C[C@H](O)[C@H](Cc1ccccc1)NC(=O)[C@@H](N1CCN(Cc2ccccc2)C1=O)C(C)(C)C)C(C)(C)C : 170

Bench note: what Cmax did "COC(=O)N[C@H](C(=O)N[C@H](Cc1ccc(-c2ccccn2)cc1)C[C@H](O)[C@H](Cc1ccccc1)NC(=O)[C@@H](N1CCN(Cc2cccc(C(C)(C)O)n2)C1=O)C(C)(C)C)C(C)(C)C" show?
40
